Assay: in vitro
Format: cell-based, human
Conditions: human; HuOB, single phytocannabinoid 12.5 μM, daily, 72 hours, vs vehicle; read-out: % VIABILITY ± S.D.
Method: At least six replicates were used for each treatment. Cell culture: The HuOB, an immortalized human osteoblast cell line derived from femoral head (INS-CI-1005, Inscreeex GmbH, Germany) was grown in HuOB Maintenance Medium (INS-ME-1006). […] Phytocannabinoid combinations in HuOB cell line viability: Before setting up the co-culture experiments with HuOB and MM cell lines, the less cytotoxic doses of phytocannabinoid combinations were evaluated in HuOB. […]
readout-name: viability at 72 h, 12.5 μM

1) CCCCCc1cc(O)c(C/C=C(\C)CCC=C(C)C)c(O)c1 [CBG] : 104%
2) C=C(C)[C@@H]1CCC(C)=C[C@H]1c1c(O)cc(CCC)cc1O [CBDV] : 72.1%
3) CCCCCc1cc(O)c2c(c1)OC(C)(C)c1ccc(C)cc1-2 [CBN] : 117%
4) CCCCCc1cc(O)c2c(c1)OC(C)(CCC=C(C)C)C=C2 (stereo not shown) [CBC] : 100%
